# TEST DETAILS: in vitro
# EXPERIMENTAL CONDITIONS: rat, gh3-tre-luc cells, AC50 (uM) modified / 1000
Listed here: items and their measured CC50 at 24 h.
// note: answer is a bare numeric in µM

Completed entries (count: 3):
{"COMPOUND": "O=c1[nH]sc2ccccc12", "UOM": "µM", "CC50 at 24 h": 5.86}
{"COMPOUND": "Oc1ccc(C2(c3ccc(O)cc3)CC3CC2C2CCCC32)cc1 (stereo not shown)", "UOM": "µM", "CC50 at 24 h": 27.4}
{"COMPOUND": "CO[C@]12C[C@@H](COC(=O)c3cncc(Br)c3)CN(C)[C@@H]1Cc1cn(C)c3cccc2c13", "UOM": "µM", "CC50 at 24 h": 16.4}

[Q] Could you tell me which CC50 at 24 h is on file for CCO[Si](CCCSSSSCCC[Si](OCC)(OCC)OCC)(OCC)OCC ?
[A] 70.3

[Q] Bench note: what CC50 at 24 h did CCC(C)Nc1c([N+](=O)[O-])cc(C(C)(C)C)cc1[N+](=O)[O-] (stereo not shown) show?
[A] 68.1

[Q] Need CC50 at 24 h, item Oc1ccc(Oc2ccccc2)cc1
[A] 35.8

----------
CC50 at 24 h values by entry
# TEST DETAILS: in vitro
# EXPERIMENTAL CONDITIONS: rat, gh3-tre-luc cells, AC50 (uM) modified / 1000
Structures can show the parent of a compound that is named as a salt.

Answered cases to consult:
{"COMPOUND": "N#CC(C#N)=NNc1cccc(Cl)c1 [Carbonyl cyanide chlorophenylhydrazone]", "CC50 at 24 h": "1.97 µM"}
{"COMPOUND": "NC(=O)N/N=C/c1ccc([N+](=O)[O-])o1", "CC50 at 24 h": "> 90 µM"}
{"COMPOUND": "N#CSCSc1nc2ccccc2s1", "CC50 at 24 h": "3.06 µM"}

[Q] Data request, read-out CC50 at 24 h, for CCOC(=O)[C@@H](C)Oc1ccc(Oc2nc3ccc(Cl)cc3o2)cc1
[A] > 90 µM

[Q] Value lookup for CC50 at 24 h; key = CO/N=C(\C(=O)N[C@@H]1C(=O)N2C(C(=O)[O-])=C(C[n+]3cccc4c3CCCC4)CS[C@H]12)c1csc(N)n1 [Cefquinome sulfate]
[A] > 50 µM

[Q] Quick check: CC50 at 24 h of CN(C)c1cccc(O)c1 ?
[A] > 90 µM

[Q] I would be grateful if you could share the reported CC50 at 24 h for OCc1c[nH]c2ccccc12 .
[A] > 90 µM

[Q] If you can, please state the reported CC50 at 24 h value of COc1cccc(OC)c1 .
[A] > 90 µM

[Q] I'd like to know its CC50 at 24 h. The compound in question is CC/C=C\CC1=C(C)CCC1=O
[A] > 90 µM

[Q] What value of measured CC50 at 24 h is listed for C=CCCCCCCCCOC(C)=O [9-Decenyl acetate] ?
[A] > 90 µM

[Q] Which value of CC50 at 24 h has been reported for CO/N=C(\C(=O)N[C@@H]1C(=O)N2C(C(=O)O)=C(CSc3nnnn3C)CS[C@H]12)c1csc(N)n1 [Cefmenoxime hydrochloride] in the records?
[A] > 50 µM

[Q] CC50 at 24 h for O=C(O)c1cc2ccccc2cc1O [3-Hydroxy-2-naphthoic acid] ?
[A] > 90 µM

[Q] Which measured CC50 at 24 h value corresponds to CCN(CC)CCOC[C@H]1O[C@@H](O)[C@H](OCCN(CC)CC)[C@@H](O)[C@@H]1O ?
[A] > 50 µM

[Q] Requested read-out: CC50 at 24 h. Entry: CC(C)N(CCC(C(N)=O)(c1ccccc1)c1ccccn1)C(C)C (stereo not shown) [Disopyramide]
[A] > 50 µM

----------
# TEST DETAILS: in vitro
# EXPERIMENTAL CONDITIONS: rat, gh3-tre-luc cells, AC50 (uM) modified / 1000, Tox21_110001=Tox21_202204; viability, 1 nM T3 present, 24 h
ATTRIBUTE MEASURED: CC50 at 24 h

[Q] Param item = COP(=O)(NC(C)=O)SC (stereo not shown) [Acephate] ; retrieve measured CC50 at 24 h.
[A] > 90 µM

----------
Reported CC50 at 24 h values follow for various compounds
# TEST DETAILS: in vitro
# EXPERIMENTAL CONDITIONS: rat, gh3-tre-luc cells, AC50 (uM) modified / 1000
Structures can show the parent of a compound that is named as a salt.

{"COMPOUND": "CC1=CCCC(C)(C)C12CCC(C)O2 (centres unmarked)", "VALUE MEASURED": "> 90 µM"}
{"COMPOUND": "Cc1ncc(CNC(=O)N(CCCl)N=O)c(N)n1", "VALUE MEASURED": "> 50 µM"}
{"COMPOUND": "CCOc1cc(Oc2ccc(C(F)(F)F)cc2Cl)ccc1[N+](=O)[O-]", "VALUE MEASURED": "79.3 µM"}
{"COMPOUND": "C1CCCCCCCCCCC1", "VALUE MEASURED": "> 20 µM"}
{"COMPOUND": "CCCCCCCC[N+](CCCCCCCC)(CCCCCCCC)CCCCCCCC [Tetra-N-octylammonium bromide]", "VALUE MEASURED": "2.56 µM"}

[Q] What measured CC50 at 24 h goes with c1ccc2sc(SN3CCOCC3)nc2c1 ?
[A] > 50 µM

[Q] Query (compound): CCC(Cc1ccccc1)(C(=O)c1ccc(N2CCOCC2)cc1)N(C)C (centres unmarked) ; field requested: CC50 at 24 h
[A] 68.2 µM

[Q] Requested read-out: CC50 at 24 h. Entry: N=C(N)NC(=O)c1nc(Cl)c(N)nc1N [Amiloride hydrochloride]
[A] > 90 µM

[Q] What value of measured CC50 at 24 h is listed for c1ccc2c(c1)ccc1ncccc12 ?
[A] > 90 µM

[Q] Request the reported CC50 at 24 h associated with S=C(SSSSSSC(=S)N1CCCCC1)N1CCCCC1
[A] 0.0827 µM

[Q] So what does the record say about CC50 at 24 h for C1CCC(C(CC2CCCCN2)C2CCCCC2)CC1 (centres unmarked) [Perhexiline maleate] ?
[A] 4.32 µM

[Q] Need CC50 at 24 h of O=C(O)Cc1c[nH]c2ccccc12 , thanks.
[A] > 90 µM

[Q] Data request, read-out CC50 at 24 h, for O=c1[nH]c2ccccc2n1C1CCN(CCCC(c2ccc(F)cc2)c2ccc(F)cc2)CC1 [Pimozide]
[A] 8.93 µM

[Q] Entry c1ccc2c(c1)Oc1ccccc1S2 has what CC50 at 24 h?
[A] > 90 µM

[Q] Entry OCCC1CCCCN1 (centres unmarked) has what CC50 at 24 h?
[A] > 90 µM

[Q] So what's the measured CC50 at 24 h for this one? CC(=O)OCC(=O)[C@@]1(O)CC[C@H]2[C@@H]3CCC4=CC(=O)CC[C@]4(C)[C@H]3[C@@H](O)C[C@@]21C [Hydrocortisone acetate]
[A] > 50 µM

[Q] So what's the measured CC50 at 24 h for this one? O=C(Nc1cccc([N+](=O)[O-])c1)c1cc2ccccc2cc1O
[A] 1.77 µM

[Q] Report CC50 at 24 h for CCn1cc(C(=O)O)c(=O)c2cnc(N3CCNCC3)nc21 please.
[A] > 20 µM

[Q] Given the entry Nc1ccc(N=Nc2ccc(N)cc2)cc1 , report its measured CC50 at 24 h.
[A] 32.1 µM

[Q] Any idea what CC50 at 24 h was measured for CCCCNC(C)(C)[PH](=O)O ?
[A] > 50 µM

----------
# TEST DETAILS: in vitro
# EXPERIMENTAL CONDITIONS: rat, gh3-tre-luc cells, AC50 (uM) modified / 1000, Tox21_110001=Tox21_303655; viability, 1 nM T3 present, 24 h
ATTRIBUTE MEASURED: CC50 at 24 h

[Q] Need CC50 at 24 h of C[C@]12CCC(=O)C[C@@H]1CC[C@@H]1[C@@H]2CC[C@]2(C)[C@@H](O)CC[C@@H]12 [5alpha-Dihydrotestosterone] , thanks.
[A] > 60 µM

----------
# TEST DETAILS: in vitro
# EXPERIMENTAL CONDITIONS: rat, gh3-tre-luc cells, AC50 (uM) modified / 1000
Structures can show the parent of a compound that is named as a salt.
CC50 at 24 h listing for selected compounds.

{"COMPOUND": "COC(=O)c1ccc(C=O)cc1 [Methyl 4-formylbenzoate]", "VALUE MEASURED": "> 90 µM"}
{"COMPOUND": "CCCOC/C(=N\\c1ccc(Cl)cc1C(F)(F)F)n1ccnc1 [Triflumizole]", "VALUE MEASURED": "58.4 µM"}
{"COMPOUND": "Oc1ccc([C@@H]2CNCc3c2ccc(O)c3O)cc1O [Zelandopam]", "VALUE MEASURED": "39.3 µM"}
{"COMPOUND": "COC(C)(OC)OC [1,1,1-Trimethoxyethane]", "VALUE MEASURED": "> 90 µM"}
{"COMPOUND": "COc1cc(NS(=O)(=O)c2ccc(N)cc2)ncn1 [Sulfamonomethoxine]", "VALUE MEASURED": "> 20 µM"}
{"COMPOUND": "CCC(=O)O[C@@H]1C[C@H]2CC[C@]1(C)C2(C)C (racemic) [Isobornyl propanoate]", "VALUE MEASURED": "> 90 µM"}
{"COMPOUND": "OCCO [Ethylene glycol]", "VALUE MEASURED": "> 100 µM"}
{"COMPOUND": "C=CC(=O)OCCOC(=O)CCC(=O)O", "VALUE MEASURED": "> 90 µM"}
{"COMPOUND": "CC(C)(CCC(=O)O)C(=O)O [2,2-Dimethylpentanedioic acid]", "VALUE MEASURED": "> 90 µM"}
{"COMPOUND": "OCc1ccccc1 [Benzyl alcohol]", "VALUE MEASURED": "> 90 µM"}

[Q] // lookup CC50 at 24 h for CC(C)=CCC/C(C)=C/CC/C(C)=C/CCC(=O)OC/C=C(\C)CCC=C(C)C [Gefarnate]
[A] > 50 µM

[Q] If you can, please state the reported CC50 at 24 h value of Cc1cc(C)c(N)c(Cl)c1 [2-Chloro-4,6-dimethylaniline] .
[A] > 90 µM

[Q] Return reported CC50 at 24 h; argument: O=C1c2ccccc2CCc2ccccc21 [Dibenzosuberone]
[A] > 90 µM

[Q] Please give the measured CC50 at 24 h for this compound: Cc1c(C(=O)c2c[nH]n(C)c2=O)ccc(S(C)(=O)=O)c1C1=NOCC1 [Topramezone]
[A] > 40 µM

[Q] Return reported CC50 at 24 h; argument: CN[C@@H]1[C@@H](O[C@H]2O[C@H](CO)[C@@H](N)[C@H](O)[C@H]2O)O[C@H]2C[C@@H](N)[C@@H](O[C@H]3[C@H](O)[C@@H](O)[C@H](N)C[C@@H]3N)O[C@@H]2[C@@H]1O [Apramycin]
[A] > 20 µM

[Q] Form field: reported CC50 at 24 h of O=C=Nc1ccc(Cl)cc1 [4-Chlorophenyl isocyanate]
[A] > 90 µM

[Q] # lookup: CC50 at 24 h of CNCCCC1c2ccccc2C=Cc2ccccc21 [Protriptyline hydrochloride]
[A] 7.1 µM

[Q] Dear colleague, I am looking for the recorded CC50 at 24 h of the following compound: CCCCCCc1ccc(N)cc1 [4-Hexylaniline]
[A] 81.3 µM

[Q] Query (compound): COc1ccc(CCN(C)CCCC(C#N)(c2cc(OC)c(OC)c(OC)c2)C(C)C)cc1OC (stereo not shown) [Gallopamil hydrochloride] ; field requested: CC50 at 24 h
[A] 21 µM
